- Tested on: LPS-induced microglia activation
- Test Details: Image-based assay of LPS-induced microglia activation (HTS and dose response)
- Type: cell-based, rat
- Test Conditions: Rattus norvegicus, Microglia, read-out: LPS % inhibition
Structures can show the parent of a compound that is named as a salt.
Measure: inhibition at 10 µM (%)
Only the number, expressed in %, is required.

Can you share its inhibition at 10 µM? I mean this molecule: Clc1ccc(C(Cn2ccnc2)OCc2ccsc2Cl)c(Cl)c1 (stereo not drawn) [Tioconazole] 12

What would you report for O=C1CC2(CCCC2)CC(=O)N1CCCCN1CCN(c2ncccn2)CC1 [Buspirone] ? 8

Here is the next molecule: CN1[C@@H]2CC[C@H]1C[C@@H](OC(c1ccccc1)c1ccccc1)C2 [Benztropine] 30

Can you check C[C@]12C=CC(=O)N[C@@H]1CC[C@@H]1[C@@H]2CC[C@]2(C)[C@@H](C(=O)Nc3cc(C(F)(F)F)ccc3C(F)(F)F)CC[C@@H]12 [Dutasteride] next? 22

Similarly, Oc1cccc2cccnc12 [Oxyquinoline] ? 116

And CC(C)NC[C@@H](O)COc1cccc2ccccc12 [Dexpropranolol Hydrochloride] ? 19

Now the molecule C[C@]12CC[C@@H]3c4ccc(O)cc4CC[C@H]3[C@@H]1C[C@H](O)[C@@H]2O [Epiestriol] 6

What do you have for CN(C)CCC=C1c2ccccc2C=Cc2ccccc21 [Cyclobenzaprine] ? 35

Next molecule: CC(=O)Nc1nnc(S(N)(=O)=O)s1 [Acetazolamide] 4

###

Could you please report measured Fibrin % cell toxicity for the items listed next?
- System: primary rat microglia
- Test Details: Cell toxicity (dead cells, size <150 μm2) in coated fibrin (cFib) assay;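 note: share of dead cells sized under 150 µm2 at 10 µM in fibrin-stimulated microglia HTS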
- Test Conditions: primary microglia HTS, fibrin stimulation, cell size <150 μm2 as marker of toxicity
Structures can show the parent of a compound that is named as a salt.
The answer is to be given in %; state only the numeric part.

Please look up its Fibrin % cell toxicity: CCn1cc(C(=O)O)c(=O)c2cnc(N3CCCC3)nc21 [Piromidic Acid] 1

Ok, now CCCNC(C)C(=O)Nc1ccccc1C (centres unmarked) [Prilocaine] 0

Here is the next compound: CCC(=O)NCC[C@@H]1CCc2ccc3c(c21)CCO3 [Ramelteon] 0

Next up: CN1C(C)(C)CCCC1(C)C [Pempidine Tartrate] 1

And what about the compound C=CC1=C(C)c2cc3[nH]c(cc4nc(cc5[nH]c(cc1n2)c(C)c5CCC(=O)O)C(CCC(=O)O)=C4C)c(C)c3C=C [Protoporphyrin Ix] ? 1

// same read-out, input: O=C(O)c1cn(-c2ccc(F)cc2)c2cc(N3CCNCC3)c(F)cc2c1=O [Sarafloxacin] 0

One more compound: Clc1ccc(C(Cn2ccnc2)OCc2csc3c(Cl)cccc23)c(Cl)c1 (centres unmarked) [Sertaconazole] 1

Here is the next compound: NNC(=O)c1ccncc1.Nc1ccc(C(=O)O)c(O)c1 [Pasiniazid] 1

Repeat with FCOC(C(F)(F)F)C(F)(F)F [Sevoflurane] 1

What about CN[C@@H]1[C@H](O)[C@H](NC)[C@H]2O[C@@]3(O)C(=O)C[C@@H](C)O[C@H]3O[C@@H]2[C@H]1O [Spectinomycin] ? 0

Please give the result for CC(Oc1ccccc1)C(=O)N[C@@H]1C(=O)N2[C@@H]1SC(C)(C)[C@@H]2C(=O)O (some centres unmarked) [Phenethicillin Potassium] too. 0

Input CO[C@H]1/C=C/O[C@@]2(C)Oc3c(C)c(O)c4c(O)c(c(/C=N/N5CCN(C6CCCC6)CC5)c(O)c4c3C2=O)NC(=O)/C(C)=C\C=C\[C@H](C)[C@H](O)[C@@H](C)[C@@H](O)[C@@H](C)[C@H](OC(C)=O)[C@@H]1C [Rifapentine] 1

Same read-out for CCC(=O)c1ccc(O)cc1 [Paroxypropione] ? 1

Follow-up item: CCCc1cc(C(N)=S)ccn1 [Protionamide, Ektebin] 1

Next record, please: CCCOc1cc(N)ccc1C(=O)OCCN(CC)CC [Propoxycaine] 0

One more compound: CCCN1C[C@H](CSC)C[C@@H]2c3cccc4[nH]cc(c34)C[C@H]21 [Pergolide] 0

Now the compound NC[C@H]1O[C@H](O[C@H]2[C@H](O[C@@H]3O[C@H](CO)[C@@H](O)[C@H]3O)[C@@H](O)[C@H](N)C[C@@H]2N)[C@H](N)[C@@H](O)[C@@H]1O.O=S(=O)(O)O [Ribostamycin Sulfate] 0

How about CO[C@H]1/C=C/O[C@@]2(C)Oc3c(C)c(O)c4c(O)c(c5c(nc6cc(C)ccn65)c4c3C2=O)NC(=O)/C(C)=C\C=C\[C@H](C)[C@H](O)[C@@H](C)[C@@H](O)[C@@H](C)[C@H](OC(C)=O)[C@@H]1C [Rifaximin] ? 0

Note, next up: CC1(C)C(C=C(Cl)Cl)C1C(=O)OCc1cccc(Oc2ccccc2)c1 (centres unmarked) [Permethrin] 0

Follow-up entry: CN1C(=O)CC(c2ccccc2)C1=O (centres unmarked) [Phensuximide] 1

Again, but for CC(=O)Oc1cccc(O)c1 [Resorcinol Monoacetate] 1

Then what about the compound CCC1(C)OC(=O)N(C)C1=O (centres unmarked) [Paramethadione] ? 0

Record: C[C@H]1COc2c(C3(N)CC3)c(F)cc3c(=O)c(C(=O)O)cn1c23 [Pazufloxacin Mesylate, Pazufloxacin] 1

// query: COc1ccc(C2CNC(=O)C2)cc1OC1CCCC1 (centres unmarked) [Rolipram] 0

Would you mind doing O=C(O)Cc1ccccc1 [Phenylacetic acid] as well? 1

Then CC(O)Cn1cnc2c1c(=O)n(C)c(=O)n2C (centres unmarked) [Proxyphylline] ? 1

Thanks! And CN(C)[C@@H]1C(O)=C(C(=O)NCN2CCCC2)C(=O)[C@@]2(O)C(O)=C3C(=O)c4c(O)cccc4[C@@](C)(O)[C@H]3C[C@@H]12 [Rolitetracycline] ? 1

Do the same for OC(CCN1CCCC1)(c1ccccc1)C1CCCCC1 (centres unmarked) [Procyclidine] please 1

// repeat for CCN(C)C(=O)Oc1cccc([C@H](C)N(C)C)c1 [Rivastigmine] and report 1

Same question, CSCC[C@H](NC(=O)[C@H](Cc1c[nH]c2ccccc12)NC(=O)CCNC(=O)OC(C)(C)C)C(=O)N[C@@H](CC(=O)O)C(=O)N[C@@H](Cc1ccccc1)C(N)=O [Pentagastrin] this time 1

And the next one, CC(=O)NS(=O)(=O)c1ccc(NC(=O)c2ccccc2C(=O)O)cc1 [Phthalylsulfacetamide] ? 1

One more compound: CC[C@H](C)C(=O)O[C@H]1C[C@H](O)C=C2C=C[C@H](C)[C@H](CC[C@@H](O)C[C@@H](O)CC(=O)O)[C@H]21 [Pravastatin] 1
